Experiment: Solubility testing of paroxetine hydrochloride in liquid carriers/solvents
Assay type: physicochemical
Details: oil or lipid; in plant oils (Sunflower, Safflower, Peanut, Soybean, Cottonseed, Corn, Castor, Apricot seed, Olive, Wheat germ, Sesame, Evening Primrose, Canola), Mineral oil, liquid paraffin, Miglyol 810/812, Oleic acid, Ethyl Oleate, Span 80/85, Labrafac lipophile, Plurol Oleique, Peceol
Counter-ions that a name gives are not always drawn.
readout-label: solubility

compound: Fc1ccc([C@@H]2CCNC[C@H]2COc2ccc3c(c2)OCO3)cc1 [paroxetine hydrochloride]
readout-label: solubility
observed-value: < 10000 µg/mL
